Listed molecules paired with reported IC50
Tested target: M3 receptor (Homo sapiens (Human), UniProt P20309)
Sequence (P20309 whole entry): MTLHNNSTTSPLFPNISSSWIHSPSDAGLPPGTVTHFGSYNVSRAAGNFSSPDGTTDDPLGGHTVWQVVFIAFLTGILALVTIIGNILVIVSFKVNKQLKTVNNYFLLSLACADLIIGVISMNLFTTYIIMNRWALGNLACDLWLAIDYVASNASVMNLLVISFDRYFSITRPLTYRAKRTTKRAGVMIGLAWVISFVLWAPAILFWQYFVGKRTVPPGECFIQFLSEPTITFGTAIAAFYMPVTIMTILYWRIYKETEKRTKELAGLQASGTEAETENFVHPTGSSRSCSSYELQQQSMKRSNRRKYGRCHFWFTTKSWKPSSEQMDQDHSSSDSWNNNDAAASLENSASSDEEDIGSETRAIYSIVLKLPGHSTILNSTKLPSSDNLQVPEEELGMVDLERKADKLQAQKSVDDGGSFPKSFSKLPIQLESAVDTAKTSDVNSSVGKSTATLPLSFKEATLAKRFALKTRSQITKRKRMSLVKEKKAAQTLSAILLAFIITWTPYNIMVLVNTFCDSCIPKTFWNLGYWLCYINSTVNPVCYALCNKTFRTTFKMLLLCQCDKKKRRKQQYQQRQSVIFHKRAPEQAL
Assay: FLIPR calcium flux assay, antagonist mode, CHO-K1 cells stably expressing M3 receptor
Measurement parameters: inhibition of acetylcholine-induced calcium flux (8 nM acetylcholine, EC80)
Structures can show the parent of a compound that is named as a salt.

See these solved cases before continuing.
Molecule	Test result
C[N+]1(C)CCC(OC(=O)C(O)c2ccccc2-c2ccccc2)C1 (stereo not drawn)	10 to 100 nM
C[N+]1(C)CC[C@@H](OC(=O)C(O)c2ccccc2-c2ncco2)C1 (stereo partly drawn) [Example 1, trifluoroacetate]	10 to 100 nM
C[N+]1(C)CC[C@H](OC(=O)C(O)c2ccccc2C2=CCCC2)C1 (single isomer, unassigned) [Example 4, trifluoroacetate]	10 to 100 nM
C[N+]1(C)CCC[C@@H]1COC(=O)C(O)c1ccccc1C1=CCCC1 (stereo partly drawn) [Example 7, trifluoroacetate]	10 to 100 nM

# input Form field: reported IC50 of C[N+]1(C)CC[C@H](OC(=O)C(O)c2ccccc2C2=CCCC2)C1 (single isomer, unassigned) [Example 5, trifluoroacetate]
# output 10 to 100 nM

# input Form field: reported IC50 of C[N+]1(C)CC[C@@H](OC(=O)C(O)c2ccccc2C2=CCCC2)C1 (single isomer, unassigned) [Example 3, trifluoroacetate]
# output 10 to 100 nM

# input Form field: reported IC50 of CC(C)c1ccccc1C(O)C(=O)OC1CC[N+](C)(C)C1 (stereo not drawn)
# output > 1000 nM

# input Form field: reported IC50 of C[N+]1(C)CCC[C@H]1COC(=O)C(O)c1ccccc1C1=CCCC1 (single isomer, unassigned) [Example 9, trifluoroacetate]
# output < 10 nM

# input Form field: reported IC50 of C[N+]1(C)CCC[C@@H]1COC(=O)C(O)c1ccccc1C1=CCCC1 (single isomer, unassigned) [Example 6, trifluoroacetate]
# output < 10 nM

# input Form field: reported IC50 of C[N+]1(C)CC[C@@H](OC(=O)C(O)c2ccccc2C2=CCCC2)C1 (single isomer, unassigned) [Example 2, trifluoroacetate]
# output < 10 nM

# input Form field: reported IC50 of C[N+]1(C)CCC(OC(=O)C(O)c2ccccc2C2CCCC2)C1 (stereo not drawn)
# output 10 to 100 nM

# input Form field: reported IC50 of C[N+]1(C)CCC[C@H]1COC(=O)C(O)c1ccccc1C1=CCCC1 (single isomer, unassigned) [Example 8, trifluoroacetate]
# output 10 to 100 nM
